Hey, just so you know, these numbers are from PubChem BioAssay (NCI).

System: RXF 393 renal
Test: NCI-60 one-dose screen, 48 h
Conditions: 10 µM unless noted
This is part of a sample that, as a whole, favours compounds with a hit. Of some 83,000 tested, about 20% had one in any assay. Calls of active or inactive are those of the source. Rule for the calls: active = growth percent below 10; inactive = the rest.
Answer with one of the outcomes 1 = active, -1 = inactive

Task item: Identify the outcome logged in this assay for the molecule shown: N#Cc1c(-c2ccccc2)cc(-c2ccc(Nc3nc(Nc4ccc(F)cc4)nc(Nc4ccc(F)cc4)n3)cc2)nc1N
Reply: -1

Task item: Another molecule to check: COc1ccc2nc(NNC(=O)c3cnccn3)c3cccn3c2c1
Reply: -1

Task item: Another molecule to check: Cc1cc(O)c(C2=NN(c3ccc(S(N)(=O)=O)cc3)C(c3ccccc3Cl)C2)cc1Cl (stereo not given)
Reply: 1

Task item: Another molecule to check: O=C(NCCCNc1cc(-c2cn(-c3ccccc3)nc2-c2cccc(O)c2)ccn1)c1ccccc1
Reply: -1

Task item: Another molecule to check: CNS(=O)(=O)c1n[nH]nc1-c1cc(C(C)(C)C)c(O)c(C(C)(C)C)c1
Reply: -1

----------
Test system: MALME-3M melanoma
Experiment: NCI-60 one-dose screen, 48 h (100 = growth as untreated, 0 = no growth, -100 = all killed)
Details: 10 µM unless noted
About 83,000 compounds went through this panel and 20% of them were active in at least one assay; those are over-represented in the sample as a whole.
What growth was measured for each of the following?
Please state the figure in %; there is no need to write the unit.

Task item: Entry NC1=NCc2nc3ccccc3c(=O)n2C1 : reported growth = ?
Reply: 104

Task item: Another molecule to check: CCc1ccccc1NC(=O)/C(C#N)=C/c1ccc(OC)cc1
Reply: 104

Task item: Another molecule to check: Cc1c(C(=O)NC(Cc2ccccc2)C(O)C(=O)NCc2ccc(F)cc2)[nH]c2ccccc2c1=O (stereo not given)
Reply: 111

Task item: Another molecule to check: O=C(NCCCNc1cc(-c2cn(-c3ccccc3)nc2-c2cccc(O)c2)ccn1)c1cccc(O)c1
Reply: 64.2

Task item: Another molecule to check: CN(Cc1cnc2nc(N)nc(N)c2n1)c1ccc(C(=O)N[C@@H](CCc2nn[nH]n2)c2nn[nH]n2)cc1
Reply: 68.9

Task item: Another molecule to check: Cc1ccc2nc(NC(=O)CSc3nc(-c4ccccc4)c(C#N)c(=O)n3Cc3ccccc3)sc2c1
Reply: 78.6

Task item: Another molecule to check: COc1cccc(-c2nc3sccn3c2-c2ccnc(NCCNS(=O)(=O)c3cccc(Cl)c3)c2)c1
Reply: 63.2

Task item: Another molecule to check: N=C1CCC(=N)c2c1c(O)c1ccccc1c2O
Reply: 135

Task item: Another molecule to check: Cc1cc(NCc2cc(Nc3ccnc4cc(Cl)ccc34)ccc2F)nc(N2CCOCC2)n1
Reply: -0.307

Task item: Another molecule to check: Cc1ccc(-n2c(-c3ccccc3)c(-c3ccccc3)c3c(SCC(=O)n4[nH]c(N)cc4=O)ncnc32)cc1
Reply: 97.6

----------
What growth was measured for each of the following?
Tested on: LOX IMVI melanoma
Test: NCI-60 one-dose screen, 48 h (100 = growth as untreated, 0 = no growth, -100 = all killed)
Settings: 10 µM unless noted
This is part of a sample that, as a whole, favours compounds with a hit. Of some 83,000 tested, about 20% had one in any assay.
Please state the figure in %; there is no need to write the unit.

Task item: Missing value: growth, LOX IMVI melanoma, entry NS(=O)(=O)c1cnccc1Sc1ccncc1S(N)(=O)=O . Fill in?
Reply: 101

Task item: Another compound to check: Cc1ccc(/C=C/c2c(C(=O)/C=C/c3ccc(Cl)cc3)c(C)nc3ccccc23)cc1
Reply: -91

Task item: Another compound to check: COc1ccc(C(=O)Nn2c(NCC(=O)N3c4ccccc4Sc4ccccc43)nnc2-c2ccc(O)cc2)cc1
Reply: 98.4

Task item: Another compound to check: Cc1ccc2nc(NC(=O)CSc3nc(Nc4ccc([N+](=O)[O-])cc4)c(C#N)c(-c4ccccc4)n3)sc2c1
Reply: 96.7

Task item: Another compound to check: Cc1ccc2nc(NC(=O)CSc3nc(-c4ccccc4)c(C#N)c(=O)n3Cc3ccccc3)sc2c1
Reply: 83.1

Task item: Another compound to check: CCCCCCCCCOc1c(OC)cc(C2CC(=O)Nc3c2c(C)nn3-c2nc3ccccc3[nH]2)cc1OC (centres undefined)
Reply: -95.8

Task item: Another compound to check: CCN(CC)CCCC(C)Nc1c2ccc(Cl)cc2nc2ccc(O)cc12 (centres undefined)
Reply: 0.124

Task item: Another compound to check: Cc1nc2ccccc2c(/C=C/c2ccc(Cl)cc2)c1C(=O)/C=C/c1ccc(F)cc1
Reply: -90.3

Task item: Another compound to check: COc1ccc(-c2nc3c(N)c(CO)c(C)nc3o2)cc1
Reply: 93.5
